# Tested on: U-2 OS
# Experiment summary: cell painting activity score (Mahalanobis distance from DMSO wells); higher = stronger morphological phenotype
# Measurement context: 2.5 µM; 24 h
Endpoint name: cell painting activity score

These solved cases illustrate the format of a correct answer.
# Test smiles, Endpoint name, Observed
rows = [
    ("O=S1(=O)C=Cc2ccccc21", "cell painting activity score", 10.4),
    ("COc1cc2c(c(OC)c1OC)-c1ccc(OC)c(=O)cc1[C@@H](NC(C)=O)CC2", "cell painting activity score", 20.7),
    ("CCN(CC)Cc1ccc2cc(COC(=O)Nc3ccc(C(=O)NO)cc3)ccc2c1.Cl", "cell painting activity score", 15),
    ("O=C1CCC(=O)N1c1ccc(O)cc1", "cell painting activity score", 3.81),
    ("C[C@@]12C(=O)OC(=O)[C@]1(C)[C@H]1CC[C@@H]2O1", "cell painting activity score", 13.8),
    ("C=CC(=O)Nc1cccc(Oc2nc(Nc3ccc(N4CCN(C)CC4)cc3OC)ncc2Cl)c1", "cell painting activity score", 10.7),
]

I have 3 compounds here; please give me cell painting activity score for each one.
1. COc1cc(/C=C/c2cc(/C=C/c3ccc(O)c(OC)c3)n(-c3ccc(C(=O)[O-])cc3)n2)ccc1O.[Na+]
2. O=C(Nc1ccc([N+](=O)[O-])cc1Cl)c1cc(Cl)ccc1O
3. CCc1c2c(nc3ccc(O)cc13)-c1cc3c(c(=O)n1C2)COC(=O)[C@]3(O)CC

**Result**
1. 6.19
2. 10.3
3. 12.7
